target: human MC4R (Homo sapiens, UniProt P32245); test: Competitive; assay type: binding
Sequence (P32245 whole entry): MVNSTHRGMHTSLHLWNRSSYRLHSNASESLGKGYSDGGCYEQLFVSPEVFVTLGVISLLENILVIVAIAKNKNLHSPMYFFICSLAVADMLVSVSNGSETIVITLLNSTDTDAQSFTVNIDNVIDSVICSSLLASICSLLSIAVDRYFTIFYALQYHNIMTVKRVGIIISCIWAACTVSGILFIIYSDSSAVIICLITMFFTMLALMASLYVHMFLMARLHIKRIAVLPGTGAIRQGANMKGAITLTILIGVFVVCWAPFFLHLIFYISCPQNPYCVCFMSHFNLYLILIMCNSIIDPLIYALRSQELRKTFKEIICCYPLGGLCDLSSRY
Positions of bridges follow the written chain, without caps; N, C: chain ends. No end group written: not given here.
Below, each entry is listed alongside its reported Ki.

substance: GIINTLQKYYCRVRGGRSAVLSSLPKEEQIGKSSTRGRKCSRRKK-NH2 (disulfide 11-40) [CysT-V]
Ki: 0.206 µM
--
substance: GIINTLQKYYSRVRGGRSAVLSSLPKEEQIGKSSTRGRKSSRRKK-NH2 [Cys->Ser]
Ki: 0.436 µM

* * *

molecular target: MC1R (Homo sapiens); assay: Competitive; type: binding
Sequence (Q01726 whole entry): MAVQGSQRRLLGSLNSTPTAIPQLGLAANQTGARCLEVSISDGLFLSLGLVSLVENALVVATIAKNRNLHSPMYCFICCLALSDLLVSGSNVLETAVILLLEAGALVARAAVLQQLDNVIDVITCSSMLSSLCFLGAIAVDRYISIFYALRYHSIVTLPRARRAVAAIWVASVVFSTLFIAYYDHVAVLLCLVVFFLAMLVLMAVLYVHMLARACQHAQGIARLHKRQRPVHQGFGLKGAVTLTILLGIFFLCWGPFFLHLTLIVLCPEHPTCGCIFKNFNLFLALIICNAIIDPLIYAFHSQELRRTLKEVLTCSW
Positions of bridges follow the written chain, without caps; N, C: chain ends. No end group written: not given here.
Below, each entry is listed alongside its reported Ki.

substance: GIINTLQKYYSRVRGGRSAVLSSLPKEEQIGKSSTRGRKSSRRKK-NH2 [Cys->Ser]
value_qualifier: =
Ki (µM): 0.297
--
substance: GIINTLQKYYSRVRGGRSAV-NH2 [N-term Truncate]
value_qualifier: >
Ki (µM): 5
--
substance: GIINTLQKYYCRVRGGRSAVLSSLPKEEQIGKSSTRGRKCSRRKK-NH2 (disulfide 11-40) [CysT-V]
value_qualifier: =
Ki (µM): 0.243
